src = ChEMBL document CHEMBL1157439

System Tested: Cannabinoid receptor 2 (Homo sapiens, UniProt P34972)
Sequence (P34972 whole entry): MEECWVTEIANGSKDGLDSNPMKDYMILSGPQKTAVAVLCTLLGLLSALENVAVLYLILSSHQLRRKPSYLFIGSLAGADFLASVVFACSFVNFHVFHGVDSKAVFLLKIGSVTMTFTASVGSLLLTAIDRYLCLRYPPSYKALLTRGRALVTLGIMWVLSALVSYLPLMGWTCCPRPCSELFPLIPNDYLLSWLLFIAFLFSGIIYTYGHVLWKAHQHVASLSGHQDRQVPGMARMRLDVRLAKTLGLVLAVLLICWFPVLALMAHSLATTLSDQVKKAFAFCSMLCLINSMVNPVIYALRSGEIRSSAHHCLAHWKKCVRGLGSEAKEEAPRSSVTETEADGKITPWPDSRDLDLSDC
Assay Name: Agonist activity at cloned human CB2 receptor in Sf9 cells assessed as stimulation of [35S]GTPgammaS binding assay
Answer each item with its documented EC50.
# value in nM; strip the unit string

Reported EC50, compound CCOc1ccc(Cc2nc3cc(C(=O)N(CC)CC)ccc3n2CC23CC4CC(CC(C4)C2)C3)cc1 : ____
1.3

Reported EC50, compound CCOc1ccc(C(=O)c2nc3cc(C(=O)N(CC)CC)ccc3n2CCC(C)C)cc1 : ____
25

Reported EC50, compound CCOc1ccc(Cc2nc3cc(N(C)C(=O)N4CCCCC4)ccc3n2CC2CC2)cc1 : ____
3.3

Reported EC50, compound CCOc1ccc(Cc2nc3cc(C(=O)N(CC)CC)ccc3n2CC2CC2)cc1 : ____
2.1

Reported EC50, compound CCOc1ccc(Cc2nc3cc(N(C)C(=O)CC(C)C)ccc3n2CC2CC2)cc1 : ____
2.7

Reported EC50, compound CCOc1ccc(Cc2nc3cc(C(=O)N(CC)CC)ccc3n2C[C@@H]2CCCO2)cc1 : ____
4.8

Reported EC50, compound CCN(CC)C(=O)c1ccc2c(c1)nc(Cc1ccc(OC3CCC3)cc1)n2CCC(C)C : ____
24

Reported EC50, compound CCN(CC)C(=O)c1ccc2c(c1)nc(Cc1ccc(OC(F)(F)F)cc1)n2CCC(C)C : ____
11

Reported EC50, compound CCOc1ccc(Cc2nc3cc(C(=O)N(CC)CC)ccc3n2Cc2ccco2)cc1 : ____
3.3

Reported EC50, compound CCOc1ccc(Cc2nc3cc(C(=O)N(CC)CC)ccc3n2Cc2ccccc2)cc1 : ____
1.1

---

Value Type: pKi
The quantity pKi is defined as the negative base-10 logarithm of the molar concentration.

Provide value of pKi for this record tested with Cannabinoid receptor 2 (Homo sapiens, UniProt P34972): CCOc1ccc(Cc2nc3cc(N(C)C(C)=O)ccc3n2CC2CC2)cc1
5.87

Provide value of pKi for this record tested with Cannabinoid receptor 2 (Homo sapiens, UniProt P34972): CCOc1ccc(Cc2nc3cc(N(C)C(=O)c4cccs4)ccc3n2CC2CC2)cc1
8.30

Provide value of pKi for this record tested with Cannabinoid receptor 2 (Homo sapiens, UniProt P34972): CCOc1ccc(Cc2nc3cc(C(=O)N(CC)CC)ccc3n2CC23CC4CC(CC(C4)C2)C3)cc1
8.55

Provide value of pKi for this record tested with Cannabinoid receptor 2 (Homo sapiens, UniProt P34972): CCN(CC)C(=O)c1ccc2c(c1)nc(Cc1ccc(OCC3CC3)cc1)n2CCC(C)C
7.28

Provide value of pKi for this record tested with Cannabinoid receptor 2 (Homo sapiens, UniProt P34972): CCOc1ccc(Cc2nc3cc(C(=O)N(CC)CC)ccc3n2Cc2ccncc2)cc1
7.80

Provide value of pKi for this record tested with Cannabinoid receptor 2 (Homo sapiens, UniProt P34972): CCOc1ccc(C(=O)c2nc3cc(C(=O)N(CC)CC)ccc3n2CCC(C)C)cc1
7.46

Provide value of pKi for this record tested with Cannabinoid receptor 2 (Homo sapiens, UniProt P34972): CCCN(C)C(=O)c1ccc2c(c1)nc(Cc1ccc(OCC)cc1)n2CC1CC1
8.12

Provide value of pKi for this record tested with Cannabinoid receptor 2 (Homo sapiens, UniProt P34972): CCOc1ccc(Cc2nc3cc(C(=O)N(CC)CC)ccc3n2Cc2ccccc2)cc1
7.92

Provide value of pKi for this record tested with Cannabinoid receptor 2 (Homo sapiens, UniProt P34972): CCOc1ccc(Cc2nc3cc(C(=O)N(CC)CC)ccc3n2Cc2ccccn2)cc1
7.41

Provide value of pKi for this record tested with Cannabinoid receptor 2 (Homo sapiens, UniProt P34972): CCOc1ccc(Cc2nc3cc(C(=O)N4CCCCC4)ccc3n2CC2CC2)cc1
8.16

Provide value of pKi for this record tested with Cannabinoid receptor 2 (Homo sapiens, UniProt P34972): CCOc1ccc(Cc2nc3cc(C(=O)N(CC)CC)ccc3n2CC2CC2)nc1
7.57

Provide value of pKi for this record tested with Cannabinoid receptor 2 (Homo sapiens, UniProt P34972): CCOc1ccc(Cc2nc3cc(C(=O)N(CC)CC)ccc3n2CC2CCCC2)cc1
9.00

Provide value of pKi for this record tested with Cannabinoid receptor 2 (Homo sapiens, UniProt P34972): CCOc1ccc(Cc2nc3cc(C(=O)N4CCCC4)ccc3n2CC2CC2)cc1
7.85

Provide value of pKi for this record tested with Cannabinoid receptor 2 (Homo sapiens, UniProt P34972): CCOc1ccc(Cc2nc3cc(N(C)C(=O)NC(C)C)ccc3n2CC2CC2)cc1
8.24

Provide value of pKi for this record tested with Cannabinoid receptor 2 (Homo sapiens, UniProt P34972): CCOc1ccc(Cc2nc3cc(C(=O)N(CC)CC)ccc3n2C[C@@H]2CCCO2)cc1
7.82

Provide value of pKi for this record tested with Cannabinoid receptor 2 (Homo sapiens, UniProt P34972): CCN(CC)C(=O)c1ccc2c(c1)nc(Cc1ccc(OC3CCCC3)cc1)n2CCC(C)C
7.37

Provide value of pKi for this record tested with Cannabinoid receptor 2 (Homo sapiens, UniProt P34972): CCOc1ccc(Cc2nc3cc(NC)ccc3n2CC2CC2)cc1
5.36

Provide value of pKi for this record tested with Cannabinoid receptor 2 (Homo sapiens, UniProt P34972): CCOc1ccc(Cc2nc3cc(N(C)C(=O)N4CCCCC4)ccc3n2CC2CC2)cc1
8.40

Provide value of pKi for this record tested with Cannabinoid receptor 2 (Homo sapiens, UniProt P34972): CCOc1ccc(Cc2nc3cc(C(=O)N(CC)CC)ccc3n2CC2CCOCC2)cc1
8.41

Provide value of pKi for this record tested with Cannabinoid receptor 2 (Homo sapiens, UniProt P34972): CCN(CC)C(=O)c1ccc2c(c1)nc(Cc1ccc(OC3CCC3)cc1)n2CCC(C)C
7.36

Provide value of pKi for this record tested with Cannabinoid receptor 2 (Homo sapiens, UniProt P34972): CCOc1ccc(Cc2nc3cc(C(=O)N(CC)CC)ccc3n2CC2CC2)cc1
8.39
